Ka values for the binders below.
# STUDY_SYSTEM: T1, human insulin-like growth factor-II (human, UniProt P01344 25-91)
# T1 construct: also called hIGF-II; IGF-II
# T1 sequence (P01344 25-91 limits assumed): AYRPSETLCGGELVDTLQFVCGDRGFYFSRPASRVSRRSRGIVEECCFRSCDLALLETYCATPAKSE
# MEASUREMENT_PROTOCOL: SPR (Biacore 2000), hIGF-II amine-coupled on CM-5, antibody as analyte, 25 C
Number only, in M⁻¹; omit the unit.

BINDER	Ka (M⁻¹)
anti-hIGF CDR-grafted antibody CamHV0/NYPLL3A11 (antibody, human IgG1, V domains shown) VH: QVQLVESGGGVVQPGRSLRLSCAASGFTFSNYYMTWVRQAPGKGLEWVAYISSGGGSTYYRDSVKGRFTISRDNSKNTLYLQMNSLRAEDTAVYYCAREDYGYWFAYWGQGTLVTVSS VL: DIVMTQSPDSLAVSLGERATITCRASSSVSYMHWFQQKPGQSPKPWIYGTSKLASGVPDRFSGSGSGTSYSLTISSLQAEDAATYYCLQRSSYPPTFGQGTKVEIK	2.1e+09
anti-hIGF CDR-grafted antibody QGAR/PLDFT (antibody, human IgG1, V domains shown, Human IgG1, kappa (pKANTEX93)) VH: EVQLVESGGGVVQPGRSLRLSCAASGFTFSNYYMTWVRQAPTKGLEWVAYISSGGGSTYYRDSVKGRFTISRDNSKNTLYLQMNSLRAEDTAVYYCTTEDYGYWFAYWGQGTLVTVSS VL: DIVMTQSPDSLAVSLGERATINCRASSSVSYMHWYQQKPGQSPKPLIYGTSKLASGVPDRFSGSGSGTSYSLTISSLQAEDVAVYYCLQRSSYPPTFGQGTKVEIK	4.02e+09
anti-hIGF human chimeric antibody KM3002 (antibody, human IgG1, V domains shown, V regions of KM1468 on human IgG1, kappa constant regions (vector pKANTEX93); also called anti-hIGF chimeric antibody KM3002) VH: EVHLVESGGGLVQPGRSLKLSCAASGFTFSNYYMTWVRQAPTKGLEWVAYISSGGGSTYYRDSVKGRFTISRDNAKSTLYLQMDSLRSEDTATYYCTTEDYGYWFAYWGQGTLVTVSS VL: EIVLTQSPTTMAASPGEKVTITCRASSSVSYMHWFQQKSGTSPKPWIYGTSKLASGVPDRFSGSGSGTSYSLTISSMEAEDAATYYCLQRSSYPPTFGAGTKLELK	2.24e+09

Looking up anti-hIGF CDR-grafted antibody QGAR/LV0 (antibody, human IgG1, V domains shown, Human IgG1, kappa (pKANTEX93)) VH: EVQLVESGGGVVQPGRSLRLSCAASGFTFSNYYMTWVRQAPTKGLEWVAYISSGGGSTYYRDSVKGRFTISRDNSKNTLYLQMNSLRAEDTAVYYCTTEDYGYWFAYWGQGTLVTVSS VL: DIVMTQSPDSLAVSLGERATINCRASSSVSYMHWYQQKPGQPPKLLIYGTSKLASGVPDRFSGSGSGTDFTLTISSLQAEDVAVYYCLQRSSYPPTFGQGTKVEIK , I found its Ka recorded as 1.75e+09

Looking up anti-hIGF CDR-grafted antibody CamHV0/LV0 (antibody, human IgG1, V domains shown, Human IgG1, kappa (pKANTEX93); also called CmaHV0/LV0) VH: QVQLVESGGGVVQPGRSLRLSCAASGFTFSNYYMTWVRQAPGKGLEWVAYISSGGGSTYYRDSVKGRFTISRDNSKNTLYLQMNSLRAEDTAVYYCAREDYGYWFAYWGQGTLVTVSS VL: DIVMTQSPDSLAVSLGERATINCRASSSVSYMHWYQQKPGQPPKLLIYGTSKLASGVPDRFSGSGSGTDFTLTISSLQAEDVAVYYCLQRSSYPPTFGQGTKVEIK , I found its Ka recorded as 3.9e+08
